# reported phytotoxicity to the plant, IPOHE; entries follow
system: Ipomoea hederacea (IPOHE); experiment: Herbicidal efficacy, application post-emergence; type: in vivo; conditions: 250 g/ha, evaluated visually after 13 days, scale 0-5

>  <compound>
CCc1cc(C2CN(C)C(=O)C2C(=O)Nc2ccc(F)cc2F)nn1C(F)F (stereo not drawn) [Compound 58]

>  <target-entity>
Ipomoea hederacea (IPOHE)

>  <phytotoxicity to the plant, IPOHE>
3

$$$$
>  <compound>
Cc1cc(C2CN(C)C(=O)C2C(=O)Nc2cccc(F)c2F)nn1C(F)F (stereo not drawn) [Compound 33]

>  <target-entity>
Ipomoea hederacea (IPOHE)

>  <phytotoxicity to the plant, IPOHE>
4

$$$$
>  <compound>
Cc1c(F)cccc1NC(=O)C1C(=O)N(C)CC1c1cc(C)n(C(F)F)n1 (stereo not drawn) [Compound 9]

>  <target-entity>
Ipomoea hederacea (IPOHE)

>  <phytotoxicity to the plant, IPOHE>
3

$$$$
>  <compound>
CCc1cc(C2CN(C)C(=O)C2C(=O)Nc2cccc(F)c2C)nn1C(F)F (stereo not drawn) [Compound 10]

>  <target-entity>
Ipomoea hederacea (IPOHE)

>  <phytotoxicity to the plant, IPOHE>
4

$$$$
>  <compound>
Cc1cc(C2CN(C)C(=S)C2C(=O)Nc2ccc(F)cc2F)nn1C(F)F (stereo not drawn) [Compound 61]

>  <target-entity>
Ipomoea hederacea (IPOHE)

>  <phytotoxicity to the plant, IPOHE>
1

$$$$
>  <compound>
Cc1cc(C2CN(C)C(=O)C2C(=O)Nc2ccc(F)nc2F)nn1C(F)F (stereo not drawn) [Compound 81]

>  <target-entity>
Ipomoea hederacea (IPOHE)

>  <phytotoxicity to the plant, IPOHE>
1

$$$$
